Cited source: paper PMC11345841

TESTED SYSTEM: EPHA6 (Homo sapiens)
Construct: purchased Eurofins DiscoverX KINOMEscan (scanTK)
Sequence (Q9UF33 23-1036): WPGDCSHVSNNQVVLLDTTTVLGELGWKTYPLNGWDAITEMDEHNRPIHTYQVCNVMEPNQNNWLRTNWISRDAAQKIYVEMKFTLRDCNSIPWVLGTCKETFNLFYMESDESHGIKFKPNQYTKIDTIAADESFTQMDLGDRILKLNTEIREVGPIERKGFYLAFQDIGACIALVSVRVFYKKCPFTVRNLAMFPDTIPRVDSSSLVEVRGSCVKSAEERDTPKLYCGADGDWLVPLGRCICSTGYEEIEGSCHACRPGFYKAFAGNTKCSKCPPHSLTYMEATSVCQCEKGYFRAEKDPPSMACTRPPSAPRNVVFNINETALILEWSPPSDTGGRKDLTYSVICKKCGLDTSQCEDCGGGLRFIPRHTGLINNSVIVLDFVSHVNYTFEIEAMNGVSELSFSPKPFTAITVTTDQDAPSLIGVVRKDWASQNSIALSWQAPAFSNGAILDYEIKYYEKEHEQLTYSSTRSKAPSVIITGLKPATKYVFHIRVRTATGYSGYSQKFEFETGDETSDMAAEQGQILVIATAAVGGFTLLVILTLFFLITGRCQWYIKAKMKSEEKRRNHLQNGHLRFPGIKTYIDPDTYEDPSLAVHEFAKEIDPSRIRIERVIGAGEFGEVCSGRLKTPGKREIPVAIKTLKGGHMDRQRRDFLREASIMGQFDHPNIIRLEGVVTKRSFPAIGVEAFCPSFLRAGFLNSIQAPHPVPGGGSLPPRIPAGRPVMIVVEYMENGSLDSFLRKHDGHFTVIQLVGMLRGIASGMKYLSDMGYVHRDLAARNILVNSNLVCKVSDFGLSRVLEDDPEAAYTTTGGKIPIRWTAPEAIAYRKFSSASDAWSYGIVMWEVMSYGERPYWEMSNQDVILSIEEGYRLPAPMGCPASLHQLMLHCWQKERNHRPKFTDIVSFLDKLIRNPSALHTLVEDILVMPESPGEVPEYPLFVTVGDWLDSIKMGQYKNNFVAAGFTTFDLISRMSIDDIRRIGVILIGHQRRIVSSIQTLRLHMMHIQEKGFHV
METHOD: KINOMEscan ScanTK
Assay type: binding
SETUP CONDITIONS: read-out: %Control @1000nM
RECORDED ENDPOINT: remaining binding at 1 µM (%)
Provide only the numeric value, understood in %.

# COMPOUND, RECORDED ENDPOINT, UNIT STRING, MEASURED NUMBER
measured = [
    ("C=CC(=O)N1CCC[C@@H](n2nc(-c3ccc(Oc4ccccc4)cc3)c3c(N)ncnc32)C1 [Compound 1g, Ibrutinib, reference compound]", "remaining binding at 1 µM", "%", 77),
    ("CNC(=O)c1cnc(S(C)(=O)=O)nc1N1CCCC(n2nc(-c3ccc(Oc4ccccc4)cc3)c3c(N)ncnc32)C1 (centres unmarked) [Compound 8d]", "remaining binding at 1 µM", "%", 97),
]

Given the entry Cc1cnc(S(C)(=O)=O)nc1N1CCCC(n2nc(-c3ccc(Oc4ccccc4)cc3)c3c(N)ncnc32)C1 (centres unmarked) [Compound 8a] , report its measured remaining binding at 1 µM.
100

Need remaining binding at 1 µM of COC(=O)c1cnc(S(C)(=O)=O)nc1N1CCCC(n2nc(-c3ccc(Oc4ccccc4)cc3)c3c(N)ncnc32)C1 (centres unmarked) [Compound 8b] , thanks.
92

If you can, please state the reported remaining binding at 1 µM value of CCOC(=O)c1cnc(S(C)(=O)=O)nc1N1CCC[C@@H](n2nc(-c3ccc(Oc4ccccc4)cc3)c3c(N)ncnc32)C1 [Compound 8c] .
87
